Recorded values, source paper PMC10877727.

# subject_of_test: TraN_H82A-R86A (Enterococcus faecalis plasmid pIP501, UniProt Q7BVV5 1-122, H82A;R86A)
# assay: MST; MST in PBS-T (pH and temperature not stated); 50 nM RED-tris-NTA labelled His-protein, dsDNA 0.781 nM to 12.8 uM; Monolith NT.115, 60% LED and MST power
# condition_info: protein: recombinant; tags: N-terminal 7xHis (pQTEV); blunt
endpoint: Kd

Query: # lookup: Kd of oBS 34-mer (original TraN binding site) (dsDNA) DNA 1: CGGAAATGTCAGGTTAAACATATTTACTTTTATA DNA 2: TATAAAAGTAAATATGTTTAACCTGACATTTCCG
Response: 425 nM
